Reported denaturant midpoint (higher = more stable) values for a set of variants
B1: Cyanovirin-N, P81180 (parent)
chain: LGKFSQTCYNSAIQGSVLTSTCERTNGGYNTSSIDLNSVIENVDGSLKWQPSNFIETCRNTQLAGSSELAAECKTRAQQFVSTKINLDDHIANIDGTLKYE

# Variants of: B1
# measurement.parameters: Nostoc ellipsosporum; pH 6; 25 °C; GdnHCl; fluorescence; sodium phosphate 20 mM; transition: 2; reversible: yes(90%); structure 1IIY; whole UniProt chain shown
reported.metric: denaturant midpoint (higher = more stable) (M)

[[record]]
sequence_record = "LGKFSQTCYNVAIQGSVLTATCERTNGGYNTSSIDLNSVIENVDGSLKWQGSNFIETCRNTQLAGSSELAAECKTRAQQFVSTKINLDDHIANIDGTLKYE"
meas_value = 2.8

[[record]]
sequence_record = "LGKFSQTCYNVAIQGSVLTATCERTNGGYNTSSIDLNSVIENVDGSLKWQGSNFIETCRNVQLAGSSELAAECKTRAQQFVSTKINLDDHIANIDGTLKYE"
meas_value = 3

[[record]]
sequence_record = "LGKFSQTCYNSAIQGSVLTSTCERTNGGYNTSSIDLNSVIENVDGSLKWQGSNFIETCRNTQLAGSSELAAECKTRAQQFVSTKINLDDHIANIDGTLKYE"
meas_value = 2.3

[[record]]
sequence_record = "LGKFSQTCYNAAIQGSVLTATCERTNGGYNTSSIDLNSVIENVDGSLKWQGSNFIETCRNIQLAGSSELAAECKTRAQQFVSTKINLDDHIANIDGTLKYE"
meas_value = 3.5

